- Target: human ACC2 (Homo sapiens, UniProt O00763)
- Construct: made in house; host or cells: insect cells (baculoviral expression system)
- Sequence (O00763 129-2458 limits assumed): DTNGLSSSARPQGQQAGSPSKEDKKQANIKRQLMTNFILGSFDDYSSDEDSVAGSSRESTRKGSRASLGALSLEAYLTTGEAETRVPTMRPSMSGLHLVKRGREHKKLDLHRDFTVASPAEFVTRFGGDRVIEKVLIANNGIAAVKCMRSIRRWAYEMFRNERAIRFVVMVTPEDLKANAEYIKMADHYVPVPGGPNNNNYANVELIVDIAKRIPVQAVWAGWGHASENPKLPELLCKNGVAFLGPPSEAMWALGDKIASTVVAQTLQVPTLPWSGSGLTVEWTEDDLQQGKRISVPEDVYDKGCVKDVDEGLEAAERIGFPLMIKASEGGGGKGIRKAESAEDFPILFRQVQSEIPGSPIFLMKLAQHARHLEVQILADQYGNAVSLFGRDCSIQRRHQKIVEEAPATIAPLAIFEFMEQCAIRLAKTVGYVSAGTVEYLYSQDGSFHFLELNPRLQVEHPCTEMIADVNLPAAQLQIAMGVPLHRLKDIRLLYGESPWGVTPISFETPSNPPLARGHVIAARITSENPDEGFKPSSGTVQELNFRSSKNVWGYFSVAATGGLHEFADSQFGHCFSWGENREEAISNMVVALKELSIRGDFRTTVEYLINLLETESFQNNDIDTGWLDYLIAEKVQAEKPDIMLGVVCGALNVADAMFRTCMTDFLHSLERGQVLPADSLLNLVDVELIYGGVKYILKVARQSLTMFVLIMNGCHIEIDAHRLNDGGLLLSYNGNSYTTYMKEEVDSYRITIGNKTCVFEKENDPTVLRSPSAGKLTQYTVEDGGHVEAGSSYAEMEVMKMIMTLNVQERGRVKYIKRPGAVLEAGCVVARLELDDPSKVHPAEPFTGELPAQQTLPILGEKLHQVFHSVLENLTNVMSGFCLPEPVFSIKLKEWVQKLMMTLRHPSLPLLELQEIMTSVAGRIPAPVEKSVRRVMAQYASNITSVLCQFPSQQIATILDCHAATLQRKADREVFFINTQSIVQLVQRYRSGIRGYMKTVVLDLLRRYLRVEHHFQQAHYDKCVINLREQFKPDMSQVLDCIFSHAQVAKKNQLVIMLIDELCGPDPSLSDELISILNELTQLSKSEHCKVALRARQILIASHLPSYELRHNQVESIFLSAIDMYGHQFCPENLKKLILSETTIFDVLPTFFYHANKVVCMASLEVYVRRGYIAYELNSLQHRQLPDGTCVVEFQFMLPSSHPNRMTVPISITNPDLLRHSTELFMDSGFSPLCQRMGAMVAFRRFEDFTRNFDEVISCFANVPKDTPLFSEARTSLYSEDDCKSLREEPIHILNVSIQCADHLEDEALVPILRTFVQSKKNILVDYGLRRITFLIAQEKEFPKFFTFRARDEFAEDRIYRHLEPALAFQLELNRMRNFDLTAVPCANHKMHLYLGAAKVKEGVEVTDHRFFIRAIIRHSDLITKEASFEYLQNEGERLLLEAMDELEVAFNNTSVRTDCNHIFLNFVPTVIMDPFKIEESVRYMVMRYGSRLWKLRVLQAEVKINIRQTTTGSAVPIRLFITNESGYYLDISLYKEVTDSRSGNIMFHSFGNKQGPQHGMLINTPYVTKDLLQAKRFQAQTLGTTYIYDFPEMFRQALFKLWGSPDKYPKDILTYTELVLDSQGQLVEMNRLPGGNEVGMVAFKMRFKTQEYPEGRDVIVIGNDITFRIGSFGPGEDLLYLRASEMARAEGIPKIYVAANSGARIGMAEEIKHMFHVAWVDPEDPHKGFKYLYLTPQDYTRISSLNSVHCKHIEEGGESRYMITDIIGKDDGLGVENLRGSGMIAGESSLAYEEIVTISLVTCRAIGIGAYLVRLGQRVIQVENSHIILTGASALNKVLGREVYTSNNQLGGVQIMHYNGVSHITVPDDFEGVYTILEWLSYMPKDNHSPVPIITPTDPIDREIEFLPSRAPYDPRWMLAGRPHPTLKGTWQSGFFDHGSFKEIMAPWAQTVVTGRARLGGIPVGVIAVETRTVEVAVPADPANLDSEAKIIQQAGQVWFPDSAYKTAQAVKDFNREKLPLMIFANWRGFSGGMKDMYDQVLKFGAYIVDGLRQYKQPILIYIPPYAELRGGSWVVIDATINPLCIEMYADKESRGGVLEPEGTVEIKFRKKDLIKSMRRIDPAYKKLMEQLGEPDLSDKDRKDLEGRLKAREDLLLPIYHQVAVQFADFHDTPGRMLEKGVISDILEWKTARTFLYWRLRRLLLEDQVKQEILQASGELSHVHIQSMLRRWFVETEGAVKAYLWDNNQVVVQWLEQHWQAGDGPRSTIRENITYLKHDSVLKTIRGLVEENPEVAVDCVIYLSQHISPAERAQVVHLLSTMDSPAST
- Assay Name: ACC2 assay, spectrophotometric 384 well assay (NADH-linked, coupled lactate dehydrogenase/pyruvate kinase)
- Assay type: biochemical
- Measurement Context: ACC2 assay, hACC2 construct lacking 128 N-terminal amino acids, 25° C., 340 nm; read-out: IC50
- Protocol: Spectrophotometric 384 Well Assay Malonyl CoA formation by acetyl CoA carboxylases is stoichometrically linked to the consumption of ATP. ACC2 activity is measured in a NADH-linked kinetic method measuring ADP generated during the ACC reaction using a coupled lactate dehydrogenase/pyruvate kinase reaction. For biological testing, a human ACC2 construct which lacks the 128 amino acids at the N-terminus for increased solubility (nt 385-6966 in Genbank entry AJ575592) is cloned. […]
Measure Name: IC50 (µM)
Give the quantity in µM, number only.

INSERT INTO measurements (molecule, measure_name, readout_units, assay_result) VALUES
  ('CCOc1ccc(N2CCC(c3ccc([C@H](C)NC(=O)c4cn[nH]c4)cc3)CC2)cc1 [Example 6.10]', 'IC50', 'µM', 0.25),
  ('CSc1ccc(-c2cnc(N3CCC(c4ccc([C@H](C)NC(C)=O)cc4)CC3)nc2)c(C(F)(F)F)c1 [Example 10.77]', 'IC50', 'µM', 1.6),
  ('CC(=O)N[C@@H](C)c1ccc(C2CCN(c3nccc(-c4ccc5c(c4)OCO5)n3)CC2)cc1 [Example 22.3]', 'IC50', 'µM', 1),
  ('CC(=O)N[C@@H](C)c1ccc(C2CCN(c3ccc(OC4CC4)cc3F)CC2)cc1 [Example 1.189]', 'IC50', 'µM', 0.06),
  ('CC(=O)N[C@@H](C)c1ccc(C2CCN(c3ncc(-c4ccc(F)cc4)cc3F)CC2)cc1 [Example 10.311]', 'IC50', 'µM', 0.18),
  ('CCCCOc1ccc(N2CCC(c3ccc([C@H](C)NC(C)=O)cc3)CC2)cc1C [Example 8.40]', 'IC50', 'µM', 1.4),
  ('C[C@H](NC(=O)N(C)C)c1ccc(C2CCN(c3ncc(-c4ccccc4)cn3)CC2)cc1 [Example 10.111]', 'IC50', 'µM', 0.17);

// next entry
What does the record list as IC50 for CC(=O)N[C@@H](C)c1ccc(C2CCN(c3ccc4nc(C)oc4c3)CC2)cc1 [Example 15.15] ?
0.99
